Target desc: SARS-CoV-2 Beta (B.1.351) variant prefusion stabilized spike trimer protein (UniProt P0DTC2 14-1213)
Test description: ELISA
Exercise: for every item that follows, state its recorded IC50.
Answers are plain numbers, in nM.

# count of solved cases: 2
Binder	U	IC50
4-M3-A (antibody, V domains shown) VH: EVQLQQSGPELVKPGDSVKISCKASGYSFTGYFMNWVMQSHGKSLEWIGRINPNNGETFYNQKFKGKATLTVDKSSDTAHMELRSLTSEDSAVYYCARGGTGTGWGQGTTLTVSS VL: DILMTQSPSSMSVSLGDTVSITCHASQGISSNIGWLQQKPGKSFKGLIYYGTNLEDGVPSRFSGSGSGADYSLTISSLESEDLADYYCIQYAQFPYTFGGGTKLEIK	nM	10.8
4-N22-A (antibody, V domains shown) VH: QVQLQQPGTELVKPGASVKLSCKASGYTFTNYWMYWVKQRPGQGLDWIGNINPSNGGTNYNEKFKSKATLTVDKSSSTAYMQLSSLTSEDSAVYYCARETGNYWGQGTTLTVSS VL: DILMTQSPSSMSVSLGDTVSISCHASQGISSNIGWLQQKPGKSFKGLIYHGTNLEDGVPSRFSGSGSGADYSLTISSLESEDFADYYCVQYAQFPYTFGGGTKLEIK	nM	14

--- query ---
Would you kindly share the measured IC50 for 6-O12-A (antibody, V domains shown) VH: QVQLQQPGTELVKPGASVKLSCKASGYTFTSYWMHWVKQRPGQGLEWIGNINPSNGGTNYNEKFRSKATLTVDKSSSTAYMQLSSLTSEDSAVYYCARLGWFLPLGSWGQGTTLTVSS VL: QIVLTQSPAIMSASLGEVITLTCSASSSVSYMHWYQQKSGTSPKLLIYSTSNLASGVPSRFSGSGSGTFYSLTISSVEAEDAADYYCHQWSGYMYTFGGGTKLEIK ?
7.76

The measurements presented in this section are drawn from patent US20230115257A1.
